# reported Purity at Day 21; entries follow
assay: Effect of concentration on the stability of the solution (purity over time)
condition_label: 0.01 wt %; in water at 25° C.

- compound: "CCN(CC)CCOC(=O)Cc1sc(-c2ccccc2)nc1-c1ccc(Cl)cc1.Cl"
  unit_text: "%"
  Purity at Day 21: 46.5
- compound: "CCN(CC)CCOC(=O)CCc1ccc2cc(OC)ccc2c1.Cl"
  unit_text: "%"
  Purity at Day 21: 53.9
- compound: "CCN(CC)CCOC(=O)CCc1nc(-c2ccccc2)c(-c2ccccc2)o1.Cl"
  unit_text: "%"
  Purity at Day 21: 47.6
- compound: "CCN(CC)CCOC(=O)CC1=C(C)C(=Cc2ccc([S+](C)[O-])cc2)c2ccc(F)cc21.Cl (centres unmarked)"
  unit_text: "%"
  Purity at Day 21: 50.4
- compound: "CCN(CC)CCOC(=O)[C@H](C)c1ccc2cc(OC)ccc2c1.Cl (racemic)"
  unit_text: "%"
  Purity at Day 21: 64.5
